Target: T1, human TSH receptor (full length), coated on tubes (human, UniProt P16473 22-764)
T1 construct: TSHR coated tubes as described in WO2004/050708A2; The receptor is full length and held on plastic tubes through a mouse MAb to the TSHR; also called thyroid stimulating hormone receptor
Test: inhibition of 125I-K1-70 Fab (competitor) binding to TSHR coated tubes; 0.01 µg/mL in HBD serum pool
valueType: Inhibition of binding (%)
Your answer should be a plain number; it is taken to be in %.

# Inhibition of binding (%) (binder: K1-18 Fab (Fab, V domains shown) VH: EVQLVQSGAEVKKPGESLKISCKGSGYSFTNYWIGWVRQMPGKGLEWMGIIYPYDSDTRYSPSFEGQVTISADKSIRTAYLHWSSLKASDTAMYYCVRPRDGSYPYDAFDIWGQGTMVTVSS VL: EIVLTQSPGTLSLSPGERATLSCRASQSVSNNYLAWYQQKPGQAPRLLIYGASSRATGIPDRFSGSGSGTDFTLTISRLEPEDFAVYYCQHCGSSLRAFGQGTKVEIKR ) is -0.8

Hello, the source for this data is patent US20110300138A1, in case you need it.
